This section lists AC50 readings for Motilin receptor (Homo sapiens, UniProt O43193).
measured_endpoint: AC50

{"molecule": "C#C[C@]1(O)CC[C@H]2[C@@H]3CCc4cc(O)ccc4[C@H]3CC[C@@]21C", "recorded_value": "> 10 µM"}
{"molecule": "CN1CCc2cccc3c2[C@H]1Cc1ccc(O)c(O)c1-3", "recorded_value": "> 10 µM"}
{"molecule": "CCCCCCC(C)(C)c1cc(O)c2c(c1)OC(C)(C)C1CCC(=O)CC21 (stereo not drawn)", "recorded_value": "> 30 µM"}
{"molecule": "COC(=O)C1=C(C)NC(C)=C(C(=O)OC(C)C)C1c1cccc2nonc12 (stereo not drawn)", "recorded_value": "14.7 µM"}
{"molecule": "O=C1CN=C(c2ccccc2)c2cc(Cl)ccc2N1CC(F)(F)F", "recorded_value": "> 30 µM"}
{"molecule": "C[C@@H]1O[C@@H]1P(=O)(O)O", "recorded_value": "> 10 µM"}
{"molecule": "Nc1nc(N)c2nc(-c3ccccc3)c(N)nc2n1", "recorded_value": "> 30 µM"}
{"molecule": "C[C@H]1O[C@H](O[C@H]2[C@H](O)[C@@H](O)[C@@H](O[C@H]3[C@H](O)[C@@H](O)C(O)O[C@@H]3CO)O[C@@H]2CO)[C@H](O)[C@@H](O)[C@@H]1N[C@H]1C=C(CO)[C@@H](O)[C@H](O)[C@H]1O (stereo partly drawn)", "recorded_value": "> 30 µM"}
{"molecule": "CCOC(=O)[C@H](CCc1ccccc1)N[C@H]1CCCN2CCC[C@@H](C(=O)O)N2C1=O", "recorded_value": "> 30 µM"}
{"molecule": "Cc1cccc(C)c1NC(=O)C1CCCCN1C (stereo not drawn) [MEPIVACAINE]", "recorded_value": "> 30 µM"}
{"molecule": "NC[C@H]1CC[C@H](C(=O)O)CC1", "recorded_value": "> 10 µM"}
{"molecule": "CC[C@H](C)C(=O)O[C@H]1C[C@H](O)C=C2C=C[C@H](C)[C@H](CC[C@@H](O)C[C@@H](O)CC(=O)O)[C@H]21", "recorded_value": "> 30 µM"}
{"molecule": "N[C@@H](CSCC(=O)O)C(=O)O", "recorded_value": "> 30 µM"}
{"molecule": "O=C(O)CCn1c2c(c3ccccc31)C[C@H](NS(=O)(=O)c1ccc(F)cc1)CC2", "recorded_value": "> 30 µM"}
{"molecule": "C[C@H]1C[C@@H]2[C@H]([C@@H](O)C[C@@]3(C)[C@H]2CC[C@]3(O)C(=O)COC(=O)CCC(=O)O)[C@@]2(C)C=CC(=O)C=C12 [METHYLPREDNISOLONE HEMISUCCINATE]", "recorded_value": "> 30 µM"}
{"molecule": "CC[C@]1(O)C[C@@H]2CN(CCc3c([nH]c4ccccc34)[C@@](C(=O)OC)(c3cc4c(cc3OC)N(C)[C@H]3[C@@](O)(C(N)=O)[C@H](O)[C@]5(CC)C=CCN6CC[C@]43[C@@H]65)C2)C1", "recorded_value": "4.8 µM"}
{"molecule": "CCOc1cc(N)c([N+](=O)[O-])cc1C(=O)NC1CCN(CC2CC=CCC2)CC1 (stereo not drawn) [CINITAPRIDE]", "recorded_value": "8.1 µM"}
{"molecule": "C1COC(NC(C2CC2)C2CC2)=N1", "recorded_value": "> 10 µM"}
{"molecule": "O=C(O)c1cc(-c2ccc(F)cc2F)ccc1O", "recorded_value": "> 10 µM"}
{"molecule": "O=C(CCCCC(=O)Nc1c(I)cc(I)c(C(=O)O)c1I)Nc1c(I)cc(I)c(C(=O)O)c1I [IODIPAMIDE]", "recorded_value": "> 10 µM"}
{"molecule": "Cc1ccc(-c2nc3ccc(C)cn3c2CC(=O)N(C)C)cc1", "recorded_value": "> 30 µM"}
{"molecule": "N[C@@H](C(=O)N[C@@H]1C(=O)N2C(C(=O)O)=C(Cl)CS[C@H]12)c1ccccc1 [CEFACLOR ANHYDROUS]", "recorded_value": "> 30 µM"}
{"molecule": "NS(=O)(=O)c1cc(Cl)c(Cl)c(S(N)(=O)=O)c1 [DICHLORPHENAMIDE]", "recorded_value": "> 10 µM"}
{"molecule": "CC(=O)O[C@]1(C(C)=O)CC[C@H]2[C@@H]3C[C@H](C)C4=CC(=O)CC[C@]4(C)[C@H]3CC[C@@]21C [MEDROXYPROGESTERONE ACETATE]", "recorded_value": "> 30 µM"}
{"molecule": "O=C(CCCCCCC(=O)Nc1ccccc1)NO", "recorded_value": "> 30 µM"}
{"molecule": "CC(=O)N[C@H]1[C@H]([C@H](O)[C@H](O)CO)OC(C(=O)O)=C[C@@H]1N=C(N)N", "recorded_value": "> 30 µM"}
{"molecule": "CCCC(CCC)C(=O)O[C@H]1C[C@H]2CC[C@@H](C1)[N+]2(C)C", "recorded_value": "> 30 µM"}
{"molecule": "CC/C=C\\C/C=C\\C/C=C\\CCCCCCCC(=O)O", "recorded_value": "> 30 µM"}
{"molecule": "CN1CCCN=C1COC(=O)C(O)(c1ccccc1)C1CCCCC1 (stereo not drawn)", "recorded_value": "> 10 µM"}
{"molecule": "NC(=O)c1ncn([C@@H]2O[C@H](CO)[C@@H](O)[C@H]2O)c1O", "recorded_value": "> 30 µM"}
{"molecule": "CN1CCC2=C(C1)C(c1ccccc1)c1ccccc12 (stereo not drawn)", "recorded_value": "> 10 µM"}
{"molecule": "C#CCN(C)[C@H](C)Cc1ccccc1", "recorded_value": "> 10 µM"}
{"molecule": "COc1cc2c(cc1OC)C(=O)C(CC1CCN(Cc3ccccc3)CC1)C2 (stereo not drawn)", "recorded_value": "> 10 µM"}
